# Test: Conversion (release) of prodrug salts to parent compound in mouse plasma
# Assay type: in vitro ADME
# Measurement Conditions: mouse, plasma, 37 °C, 8 h, read-out: Release rate (conversion to Compound 1)
Listing: metabolised at 8 h of selected compounds
State the answer as a number, implicitly in %.

CN(C)C[C@@H]1C(=O)O[C@H]2[C@H]1CC[C@@]1(C)C[C@]13CC[C@@](C)(O)[C@H]23 : 43.6

Notebook: C[C@@]12CC[C@@H]3[C@H](OC(=O)[C@H]3CN3CCCCCCC3)[C@@H]3[C@]1(CC[C@@]3(C)O)C2 , metabolised at 8 h read as 41.4

Notebook: C[C@@]12CC[C@@H]3[C@H](OC(=O)[C@H]3CN3CCNCC3)[C@@H]3[C@]1(CC[C@@]3(C)O)C2 , metabolised at 8 h read as 48.5

====

# Test: Water solubility testing of compounds (HPLC)
# Measurement Conditions: deionized water, 37 °C
Observation Type: Water-solubility (mg/mL)
State the answer as a number, implicitly in mg/mL.

C[C@@]12CC[C@@H]3[C@H](OC(=O)[C@H]3CN3CCC(N4CCOCC4)CC3)[C@@H]3[C@]1(CC[C@@]3(C)O)C2 [Compound 17] : 0.942
C[C@@]12CC[C@@H]3[C@H](OC(=O)[C@H]3CN3CCC(N4CCOCC4)CC3)[C@@H]3[C@]1(CC[C@@]3(C)O)C2 [Compound 36] : 234.6
C[C@@]12CC[C@@H]3[C@H](OC(=O)[C@H]3CN3CCOCC3)[C@@H]3[C@]1(CC[C@@]3(C)O)C2 : 0.668

# evaluate next
Notebook: C=C1C(=O)O[C@H]2[C@H]1CCC(C)=C1CC[C@@](C)(OC(=O)NCCN3CCOCC3)[C@@H]12 [Compound 99] , Water-solubility read as 220.8

====

# Test: Conversion (release) of prodrug salts to parent compound in mouse plasma
# Type: in vitro ADME
# Measurement Conditions: mouse, plasma, 37 °C, 12 h, read-out: Release rate (conversion to Compound 1)
Observation Type: metabolised at 12 h (%)
State the answer as a number, implicitly in %.

Reference set, count: 6
C[C@@]12CC[C@@H]3[C@H](OC(=O)[C@H]3CN3CCCCCCC3)[C@@H]3[C@]1(CC[C@@]3(C)O)C2 [Compound 38] : 49.7
CC(C)N(C[C@@H]1C(=O)O[C@H]2[C@H]1CC[C@@]1(C)C[C@]13CC[C@@](C)(O)[C@H]23)C(C)C [Compound 31] : 48.5
CCN1CCN(C[C@@H]2C(=O)O[C@H]3[C@H]2CC[C@@]2(C)C[C@]24CC[C@@](C)(O)[C@H]34)CC1 [Compound 27] : 59.1
CN(C)C[C@@H]1C(=O)O[C@H]2[C@H]1CC[C@@]1(C)C[C@]13CC[C@@](C)(O)[C@H]23 [Compound 39] : 52.8
C[C@@]12CC[C@@H]3[C@H](OC(=O)[C@H]3CN3CCOCC3)[C@@H]3[C@]1(CC[C@@]3(C)O)C2 [Compound 25] : 51.8
C[C@@]12CC[C@@H]3[C@H](OC(=O)[C@H]3CN3CCC3)[C@@H]3[C@]1(CC[C@@]3(C)O)C2 [Compound 33] : 50.7

Notebook: CCN(CC)C[C@@H]1C(=O)O[C@H]2[C@H]1CC[C@@]1(C)C[C@]13CC[C@@](C)(O)[C@H]23 [Compound 28] , metabolised at 12 h read as 49.1

====

Listing: degraded at 8 h of selected molecules
# Test: Conversion (release) of prodrug salts to parent compound in HEPES buffer pH 7.4
# Format: in vitro ADME
# Measurement Conditions: hepes buffer, pH 7.4, HEPES pH 7.4, 37 °C, 8 h; read-out: Release rate (conversion to Compound 83)
State the answer as a number, implicitly in %.

CC1=C2CC[C@@](C)(OC(=O)N3CCCCC3)[C@@H]2[C@H]2OC(=O)[C@@H](CN(C)C)[C@@H]2CC1 : 43

# evaluate next
Notebook: CC1=C2CC[C@@](C)(OC(=O)N3CCCCC3)[C@@H]2[C@H]2OC(=O)[C@@H](CN3CCCC3)[C@@H]2CC1 , degraded at 8 h read as 45.2

====

# Test: Conversion (release) of prodrug salts to parent compound in mouse plasma
# Assay type: in vitro ADME
# Measurement Conditions: 37 °C, 8 h, 480 min
Observation Type: Release rate (conversion to Compound 1) (%)
State the answer as a number, implicitly in %.

Reference set, count: 4
CN(C)C[C@@H]1C(=O)O[C@H]2[C@H]1CC[C@@]1(C)C[C@]13CC[C@@](C)(O)[C@H]23 [Compound 41] : 46.1
CN(C)C[C@@H]1C(=O)O[C@H]2[C@H]1CC[C@@]1(C)C[C@]13CC[C@@](C)(O)[C@H]23 [Compound 20] : 46.8
CN(C)C[C@@H]1C(=O)O[C@H]2[C@H]1CC[C@@]1(C)C[C@]13CC[C@@](C)(O)[C@H]23 [Compound 42] : 41.0
CN(C)C[C@@H]1C(=O)O[C@H]2[C@H]1CC[C@@]1(C)C[C@]13CC[C@@](C)(O)[C@H]23 [Compound 40] : 44.0

Notebook: CN(C)C[C@@H]1C(=O)O[C@H]2[C@H]1CC[C@@]1(C)C[C@]13CC[C@@](C)(O)[C@H]23 [Compound 21] , Release rate (conversion to Compound 1) read as 39.3

====

Listing: degraded at 8 h of selected compounds
# Test: Conversion (release) of prodrug salts to parent compound in HEPES buffer pH 7.4
# Assay type: in vitro ADME
# Measurement Conditions: hepes buffer, pH 7.4, HEPES pH 7.4, 37 °C, 8 h; read-out: Release rate (conversion to Compound 1)
State the answer as a number, implicitly in %.

Reference set, count: 10
C[C@@]12CC[C@@H]3[C@H](OC(=O)[C@H]3CN3CCC3)[C@@H]3[C@]1(CC[C@@]3(C)O)C2 : 41.8
C[C@@]12CC[C@@H]3[C@H](OC(=O)[C@H]3CN3CCC4(CCCC4)CC3)[C@@H]3[C@]1(CC[C@@]3(C)O)C2 : 43.6
CCN1CCN(C[C@@H]2C(=O)O[C@H]3[C@H]2CC[C@@]2(C)C[C@]24CC[C@@](C)(O)[C@H]34)CC1 : 42.2
C[C@@]12CC[C@@H]3[C@H](OC(=O)[C@H]3CN3CCCCCCC3)[C@@H]3[C@]1(CC[C@@]3(C)O)C2 : 41.4
C[C@@]12CC[C@@H]3[C@H](OC(=O)[C@H]3CN3CCCC3)[C@@H]3[C@]1(CC[C@@]3(C)O)C2 : 41.3
C[C@@]12CC[C@@H]3[C@H](OC(=O)[C@H]3CN3CCNCC3)[C@@H]3[C@]1(CC[C@@]3(C)O)C2 : 43.5
CCN(CC)C[C@@H]1C(=O)O[C@H]2[C@H]1CC[C@@]1(C)C[C@]13CC[C@@](C)(O)[C@H]23 : 40.4
CCCN(CCC)C[C@@H]1C(=O)O[C@H]2[C@H]1CC[C@@]1(C)C[C@]13CC[C@@](C)(O)[C@H]23 : 40.2
C[C@@]12CC[C@@H]3[C@H](OC(=O)[C@H]3CN3CCC(N4CCCCC4)CC3)[C@@H]3[C@]1(CC[C@@]3(C)O)C2 : 43.8
CCOC(=O)[C@@H]1CCCN1C[C@@H]1C(=O)O[C@H]2[C@H]1CC[C@@]1(C)C[C@]13CC[C@@](C)(O)[C@H]23 : 41.1

Notebook: C[C@@]12CC[C@@H]3[C@H](OC(=O)[C@H]3CN3CCC(N4CCOCC4)CC3)[C@@H]3[C@]1(CC[C@@]3(C)O)C2 , degraded at 8 h read as 43.6

====

# System: T cells / MDSCs
# Test: Promotion of T cell proliferation in a co-culture model of MDSCs and T cells
# Type: cell-based, mouse
# Measurement Conditions: Mus musculus, T-cell, 12 h, read-out: T-cell proliferation rate (%), 1 μM, MDSCs treated 12 hours, co-culture of MDSCs and T cells, compared to the control group
Observation Type: activation at 1 µM

Reference set, count: 3
C=C1C(=O)O[C@H]2[C@H]1CCC(C)=C1CC[C@@](C)(OC(=O)N(C)CCC)[C@@H]12 : 20 to 40%
C=C1C(=O)O[C@H]2[C@H]1CCC(C)=C1CC[C@@](C)(OC(=O)NCC)[C@@H]12 : 0 to 20%
C=C1C(=O)O[C@H]2[C@H]1CCC(C)=C1CC[C@@](C)(OC(=O)NCCN(C)C)[C@@H]12 : 0 to 20%

Notebook: C=C1C(=O)O[C@H]2[C@H]1CCC(C)=C1CC[C@@](C)(OC(=O)NCC(F)F)[C@@H]12 , activation at 1 µM read as 20 to 40%

Notebook: C=C1C(=O)O[C@H]2[C@H]1CCC(C)=C1CC[C@@](C)(OC(=O)N(C)C)[C@@H]12 , activation at 1 µM read as 20 to 40%

Notebook: C=C1C(=O)O[C@H]2[C@H]1CCC(C)=C1CC[C@@](C)(OC(=O)NCCCO)[C@@H]12 , activation at 1 µM read as 20 to 40%

Notebook: C[C@@]12CC[C@@H]3[C@H](OC(=O)[C@H]3CN3CCOCC3)[C@@H]3[C@]1(CC[C@@]3(C)O)C2 , activation at 1 µM read as 0 to 20%
